# System: TTR
# testProtocol: TTR editing in HUH7 cells transfected with Spy Cas9 mRNA and dgRNAs (Table 5)
# Assay type: cell-based, human
# conditionContext: HUH7 cells co-transfected with Spy Cas9 mRNA (SEQ ID NO:2) and dgRNAs
// Avg % Insert lookup, one value per entry
State the answer as a number, implicitly in %.

Answered examples (10):
# biopolymerSequence, testedOn, observedValue
measured = [
    ("CCCAGAGGCAAAUGGCUCCC (tested as dual guide RNA, chemistry not given here) [CR003355]", "TTR", 9.40),
    ("AAAUAGACACCAAAUCUUAC (tested as dual guide RNA, chemistry not given here) [CR003366]", "TTR", 20.77),
    ("GCCGUGGUGGAAUAGGAGUA (tested as dual guide RNA, chemistry not given here) [CR003387]", "TTR", 0.23),
    ("AAAGUUCUAGAUGCUGUCCG (tested as dual guide RNA, chemistry not given here) [CR003346]", "TTR", 13.17),
    ("CGGCAAUGGUGUAGCGGCGG (tested as dual guide RNA, chemistry not given here) [CR003376]", "TTR", 1.37),
    ("GCUGCAUGGGCUCACAACUG (tested as dual guide RNA, chemistry not given here) [CR003361]", "TTR", 6.84),
    ("CUGCUCCUCCUCUGCCUUGC (tested as dual guide RNA, chemistry not given here) [CR003335]", "TTR", 4.62),
    ("CUGGUAUUUGUGUCUGAGGC (tested as dual guide RNA, chemistry not given here) [CR003341]", "TTR", 7.78),
    ("CUUCUCUACACCCAGGGCAC (tested as dual guide RNA, chemistry not given here) [CR003342]", "TTR", 1.23),
    ("GGCGGCAAUGGUGUAGCGGC (tested as dual guide RNA, chemistry not given here) [CR003378]", "TTR", 9.73),
]

q: Sample UUUGACCAUCAGAGGACACU (tested as dual guide RNA, chemistry not given here) [CR003344] — what was its Avg % Insert?
a: 10.76

q: Similarly, GGGGCUCAGCAGGGCGGCAA (tested as dual guide RNA, chemistry not given here) [CR003381] ?
a: 1.92

q: Similarly, CCUCCUCUGCCUUGCUGGAC (tested as dual guide RNA, chemistry not given here) [CR003336] ?
a: 4.14

----------
# Tested on: TTR
# testProtocol: TTR editing in primary cyno hepatocytes electroporated with Spy Cas9 protein and dgRNAs (Tables 10, 11)
# Type: cell-based, cynomolgus monkey
# conditionContext: Table 10; primary cyno hepatocytes electroporated with Spy Cas9 protein (RNP) and dgRNAs
recordedMetric: Avg % Insert (%)
State the answer as a number, implicitly in %.

Answered examples (2):
# biopolymerSequence, unitString, Avg % Insert
records = [
    ("UGGACUGGUAUUUGUGUCUG (tested as dual guide RNA, chemistry not given here) [CR003340]", "%", 7.72),
    ("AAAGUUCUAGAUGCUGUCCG (tested as dual guide RNA, chemistry not given here) [CR003346]", "%", 1.82),
]

# evaluate next
q: Sample GUCACAGAAACACUCACCGU (tested as dual guide RNA, chemistry not given here) [CR005301] — what was its Avg % Insert?
a: 46.34
